meta.source: patent US20040077674A1

- testedSystem: RNase H activity of HIV reverse transcriptase (Human immunodeficiency virus type 1 group M subtype B)
- Construct: 2.5 nM of the p51/p66 RT heterodimer in the assay; made in house
- assayRemarks: Fluorescence (FRET)-based RNase H assay of HIV reverse transcriptase
- Type: biochemical, HIV-1
- recordedConditions: 10 μM inhibitor concentration; activity in presence / in absence of analog x 100; read-out: Residual activity (%) RNase H
Under this convention, satisfied denotes remaining activity at 10 µM strictly below 70% and not satisfied denotes remaining activity at 10 µM at or above 70%.

> print(dat)
                                   molecule  classassignment
1  CCc1c2c(nc3ccc(N)cc13)-c1cc(C(O)CC)c(C)c(=O)n1C2 (centres unmarked) [5 (AG 6M)]        satisfied
2  CCC(O)c1cc2n(c(=O)c1C)Cc1c-2nc2ccc(NC(=O)OC(C)(C)C)cc2c1[Si](C)(C)C (centres unmarked) [5 (AG 2M)]        satisfied
3  CCC(O)c1cc2n(c(=O)c1C)Cc1c-2nc2ccc(N)cc2c1[Si](C)(C)C (centres unmarked) [5 (AG 3M)]        satisfied
4  CCc1c2c(nc3ccc(O)cc13)-c1cc(C(O)CC)c(C)c(=O)n1C2 (centres unmarked) [5 (AG 8M)]    not satisfied
